Consider the following sequences and their measured apparent KD of K4 kissing-loop reporter readings.
test system: K4 kissing-loop RNA reporter; experiment: apparent KD of K4 kissing-loop reporter; higher = weaker reporter binding; details: Eterna round: R107; input ligand: FMN 200 uM;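 further: bound reporter read as fluorescence of individual clusters on recovered sequencing chips by microscopy, with normalized cluster intensities fitted with a binding model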
Readout: apparent KD of K4 kissing-loop reporter (nM)

>>> quantitative_readout("AAGGUCACCACUACAGUGAUGUUGUGGGAGCAGGAUAUGCAGAAAUGCAGAAGGGCUCGCUCCCGGUGACCGAAUGAAACAUUCA [Omei KL FMN A SS A v5]")
1380
>>> quantitative_readout("AGAGUUAUGAGAGGAUAUGCGGCUAGUACUCAAAGAGUACUAGCAGCGGAGUGAUGUUCUGUGAAAGCAGAAGGUUCAUAACUCA [#07 K4 FMN B Same State]")
159
>>> quantitative_readout("AUUUAUUCGUACUUUCAGUGAUGUUGAUAACGAGGACCGGUACGGCCGCCACUCGAUUUGGCGAUUUUGUAUUUUUUAUUCUAUA [JR_SSTryptoA_Sub010]")
403

Origin of values: the supplement of paper PMC9170038
